Just for reference, PubChem BioAssay AID935 is where these values come from.

# Experiment Description: Confirmation Concentration-Response Assay for Identification of Small Molecule Agonists of Stat Signaling Pathway
# Particulars: SIE-bla cells, IL-6 STAT beta-lactamase reporter, 5 h
Inconclusive results are not listed. Calls of active or inactive are those of the source. The call rests on the fitted dose curve.
Parameter Potency: see the listing below.
Endpoint Name: Potency

[[record]]
compound_smiles = "CCNC(=O)c1cc2c(=O)n3cccc(C)c3nc2n(CCc2ccccc2)c1=N"
reported_result = "12.6 µM (active)"

[[record]]
compound_smiles = "Cc1ccc(S(=O)(=O)N2CCN(c3nc(C(C)C)c4c(c3C#N)CC(C)(C)OC4)CC2)cc1"
reported_result = "10 µM (active)"

[[record]]
compound_smiles = "COc1cccc2c1C(=O)c1c(O)c3c(c(O)c1C2=O)C[C@@](O)(C(=O)CO)C[C@@H]3O[C@H]1C[C@H](N)[C@H](O)[C@H](C)O1"
reported_result = "3.98 µM (active)"

[[record]]
compound_smiles = "CCN(CC)CCN1C(=O)c2cccc3cc(N)cc(c23)C1=O"
reported_result = "15.8 µM (active)"

[[record]]
compound_smiles = "Nc1ncnc2c1ncn2[C@@H]1O[C@H](COP(=O)(O)O)[C@@H](O)[C@@H]1O"
reported_result = "25.1 µM (active)"

[[record]]
compound_smiles = "Cc1cc(=O)oc2c(CN3CCCCC3)c(O)c(Cl)cc12"
reported_result = "10 µM (active)"

